- tgt: RORc (Homo sapiens)
- Sequence (P51449 269-508 limits assumed): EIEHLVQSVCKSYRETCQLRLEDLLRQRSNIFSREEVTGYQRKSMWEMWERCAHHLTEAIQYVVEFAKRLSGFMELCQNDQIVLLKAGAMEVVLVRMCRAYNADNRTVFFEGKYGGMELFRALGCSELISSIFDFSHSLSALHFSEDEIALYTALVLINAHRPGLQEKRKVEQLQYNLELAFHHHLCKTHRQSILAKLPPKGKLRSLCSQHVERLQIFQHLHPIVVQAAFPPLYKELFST
measured-quantity: IC50 (nM)
Give just the numeric value; nM need not be written.

Below: 10 compounds and their reported IC50.
compound	measured-result
CC(NC(=O)c1cn(C)cn1)c1cc(F)c(CN2[C@@H](C)CC[C@H](c3ccccc3)S2(=O)=O)cc1F (stereo in doubt) [Compound 62]	389
CC(NCc1cocn1)c1cc(F)c(CN2[C@@H](C)CC[C@H](c3ccccc3)S2(=O)=O)cc1F (some centres unmarked) [Compound 54]	255
CC(NC(=O)c1cncs1)c1cc(F)c(CN2[C@@H](C)CC[C@H](c3ccccc3)S2(=O)=O)cc1F (stereo in doubt) [Compound 72]	6.3
CNC(=O)COC1(c2cc(F)c(CN3[C@@H](C)CC[C@H](c4ccccc4)S3(=O)=O)cc2F)CC2(COC2)C1 [Compound 13]	2.1
C[C@H]1CC[C@H](c2ccccc2)S(=O)(=O)N1Cc1cc(F)c(C(C)(C)NCC(N)=O)cc1F [Compound 20]	4.2
C[C@H]1CC[C@H](c2ccccc2)S(=O)(=O)N1Cc1cc(F)c(C23CC(C)(C2)OC3=O)cc1F [Compound 27]	21.7
C[C@H]1CC[C@H](c2ccccc2)S(=O)(=O)N1Cc1ccc(C2(C(=O)NC3CC3)CCOCC2)cc1F [Compound 30]	129
C[C@H]1CC[C@H](c2ccccc2)S(=O)(=O)N1Cc1cc(F)c(C2(NCC(N)=O)CC(F)(F)C2)cc1F [Compound 21]	1.5
C[C@H]1CC[C@H](c2ccccc2)S(=O)(=O)N1Cc1cc(F)c([C@H](CCC#N)C(N)=O)cc1F [Compound 16]	56.8
C[C@H]1CC[C@H](c2ccccc2)S(=O)(=O)N1Cc1cc(F)c(C2=CC(=O)C2)cc1F [Compound 15]	6.5

**Query** RORc (Homo sapiens) / IC50 / Cc1ncoc1C(=O)NC(C)c1cc(F)c(CN2[C@@H](C)CC[C@H](c3ccccc3)S2(=O)=O)cc1F (stereo in doubt) [Compound 64] : value?
**Result** 231

**Query** RORc (Homo sapiens) / IC50 / CC(NC(=O)c1csnn1)c1cc(F)c(CN2[C@@H](C)CC[C@H](c3ccccc3)S2(=O)=O)cc1F (stereo in doubt) [Compound 79] : value?
**Result** 3

**Query** RORc (Homo sapiens) / IC50 / C[C@H](NC1=CC(=O)CCC1)c1cc(F)c(CN2[C@@H](C)CC[C@H](c3ccccc3)S2(=O)=O)cc1F [Compound 26] : value?
**Result** 131
